- target_under_test: human ALK5 (ALK5 T204D kinase domain) (Homo sapiens, UniProt P36897, T204D)
- Construct: The kinase domain of human ALK5 (amino acids 200-503) is fused to an N-terminal histidine tag
- Sequence (P36897 200-503 T204D): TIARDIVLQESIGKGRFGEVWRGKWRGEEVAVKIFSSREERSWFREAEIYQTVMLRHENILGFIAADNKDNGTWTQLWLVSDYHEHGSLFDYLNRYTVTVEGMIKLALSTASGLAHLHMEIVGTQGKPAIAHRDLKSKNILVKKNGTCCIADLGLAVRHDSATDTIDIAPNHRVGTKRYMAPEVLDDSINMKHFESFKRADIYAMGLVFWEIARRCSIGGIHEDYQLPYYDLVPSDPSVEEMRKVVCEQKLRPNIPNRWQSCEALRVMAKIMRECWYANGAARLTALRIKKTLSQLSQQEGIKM
- method_summary: ALK5 kinase activity, [33P] phosphate incorporation into casein
- condition_info: casein substrate
assay_metric: IC50 (nM)

A: OC1CCC(Nc2ccc3ncc(-c4ccnc(-c5ccoc5)c4)n3n2)CC1 (stereo not drawn) [Example 1.3]
B: O[C@H]1CC[C@H](Nc2ccc3ncc(-c4ccnc(-c5ccncc5)c4)n3n2)CC1 [Example 1.1]
C: OC1CCC(Nc2ccc3ncc(-c4ccnc(C5CC5)c4)n3n2)CC1 (stereo not drawn) [Example 1.6]
D: Cn1cc(-c2cc(-c3cnc4ccc(NC5CCC(O)CC5)nn34)ccn2)cn1 (stereo not drawn) [Example 1.4]
Qu. Hi! Can you put these in order of IC50, lowest number first? Hello, could you send the labels back in the order asked? Thank you.
Ans. A, C, B, D
(A: 5 nM, C: 15 nM, B: 42 nM, D: 150 nM)

P: Cc1ccc(-c2cc(-c3cnc4ccc(NC5CCC(O)CC5)nn34)ccn2)s1 (stereo not drawn) [Example 1.2]
Q: OC1CCC(Nc2ccc3ncc(-c4cccc(-n5cccn5)c4)n3n2)CC1 (stereo not drawn) [Example 1.7]
Qu. Would you kindly point out which of P and Q has the smaller IC50 figure? In your reply, give the label of the chosen option.
Ans. Q
(Q: 5 nM, P: 36 nM)
